# System: BDF1 mice, P388 leukemia ip, median survival T/C
# test: NCI In Vivo Anticancer Drug Screen. Data for tumor model P388 Leukemia (intraperitoneal) in B6D2F1 (BDF1) mice
# conditionParameters: endpoint: median survival time; dose: 12.5 mg/kg/injection; schedule: Q01DX001 (ip); vehicle: saline with Tween-80; higher = longer survival
# Procedure: The antitumor activity of compounds was measured in mice bearing transplantable tumors. Survival or tumor size were measured and the results are expressed as the measurement made in the treated group (T) divided by the measurement made in the vehicle treated control group (C). The tumor model used in this assay is P388 Leukemia (intraperitoneal) in B6D2F1 (BDF1) mice
Toxic doses and inconclusive results are not listed.
Exercise: state measured T/C for each of the molecules provided.

Lookup: I'd like to know its T/C. The molecule in question is O=[N+]([O-])/C=C\c1cc2c3c(c1)CCCN3CCC2
Found: 104 % of control

Lookup: Try this molecule too: O=C1C(Cl)=C(Cl)C(=O)C(/C=C/N2CCOCC2)=C1Cl
Found: 117 % of control

Lookup: Try this molecule too: Cc1cc(N(CCC(=O)O)CCC(=O)O)ccc1/C=C/c1ccc2cc(Cl)ccc2[n+]1C
Found: 96 % of control

Lookup: Try this molecule too: C[n+]1c(/C=C/c2ccc(N(CCC(=O)O)CCC(=O)O)cc2)ccc2cc(Cl)ccc21
Found: 109 % of control
